Test: Times to onset, minimal and maximal, observed in the indexed observations. [column 'DELAI' in source]
Details: human
Measured Hepatotoxicity (time to onset) accompanies every entry in the list below.

[
  {
    "COMPOUND": "COC(=O)C1=C(C)NC(C)=C(C(=O)OC)C1c1ccccc1[N+](=O)[O-]",
    "Hepatotoxicity (time to onset)": "2 days - 6 years"
  },
  {
    "COMPOUND": "C[C@H]1[C@H](NC(=O)/C(=N\\OC(C)(C)C(=O)O)c2csc(N)n2)C(=O)N1S(=O)(=O)O",
    "Hepatotoxicity (time to onset)": "4 days"
  },
  {
    "COMPOUND": "COc1cc(/C=C/C(=O)O)ccc1O [FERULATE]",
    "Hepatotoxicity (time to onset)": "2 days - 5 years"
  },
  {
    "COMPOUND": "COc1ccc([C@@H]2Sc3ccccc3N(CCN(C)C)C(=O)[C@@H]2OC(C)=O)cc1",
    "Hepatotoxicity (time to onset)": "1 day - 5 months"
  },
  {
    "COMPOUND": "Nc1ccc(S(=O)(=O)Nc2ncccn2)cc1",
    "Hepatotoxicity (time to onset)": "1 week - 2 months"
  },
  {
    "COMPOUND": "Nc1ccc(C(=O)O)cc1",
    "Hepatotoxicity (time to onset)": "4 weeks - 2 months"
  },
  {
    "COMPOUND": "[AsH3]",
    "Hepatotoxicity (time to onset)": "46 years"
  },
  {
    "COMPOUND": "N=C(N)NCC1COc2ccccc2O1 (centres undefined)",
    "Hepatotoxicity (time to onset)": "2 months - 1 year"
  },
  {
    "COMPOUND": "O=c1[nH]c2ccccc2n1CCCN1CCN(C(c2ccccc2)c2ccccc2)CC1 [OXATOMIDE]",
    "Hepatotoxicity (time to onset)": "10 days - 3 months"
  },
  {
    "COMPOUND": "Oc1ncnc2[nH]ncc12",
    "Hepatotoxicity (time to onset)": "6 days - 5 years"
  },
  {
    "COMPOUND": "CN/C(=N/CCSCc1nc[nH]c1C)NC#N",
    "Hepatotoxicity (time to onset)": "2 days - 2 years"
  },
  {
    "COMPOUND": "CN(C/C=C/C#CC(C)(C)C)Cc1cccc2ccccc12",
    "Hepatotoxicity (time to onset)": "1 week - 6 months"
  },
  {
    "COMPOUND": "NC(CO)C(=O)NNCc1ccc(O)c(O)c1O (centres undefined) [BENSERAZIDE]",
    "Hepatotoxicity (time to onset)": "< 3 months"
  },
  {
    "COMPOUND": "C=CCC1(CC(C)C)C(=O)NC(=O)NC1=O",
    "Hepatotoxicity (time to onset)": "2.5 months"
  },
  {
    "COMPOUND": "CCC(C)n1ncn(-c2ccc(N3CCN(c4ccc(OCC5COC(Cn6cncn6)(c6ccc(Cl)cc6Cl)O5)cc4)CC3)cc2)c1=O (centres undefined)",
    "Hepatotoxicity (time to onset)": "5 days - 7 months"
  },
  {
    "COMPOUND": "CN(C)CCCN1c2ccccc2CCc2ccccc21",
    "Hepatotoxicity (time to onset)": "1 week - 1 year"
  },
  {
    "COMPOUND": "COc1ccc(Cc2nccc3cc(OC)c(OC)cc23)cc1OC",
    "Hepatotoxicity (time to onset)": "1 day - 11 years"
  },
  {
    "COMPOUND": "CC1=C(/C=C/C(C)=C/C=C/C(C)=C/CO)C(C)(C)CCC1",
    "Hepatotoxicity (time to onset)": "11 days - 17.5 years"
  },
  {
    "COMPOUND": "COc1cc(N)c(Cl)cc1C(=O)NC1CCN(CCCOc2ccc(F)cc2)CC1OC (centres undefined) [CISAPRIDE]",
    "Hepatotoxicity (time to onset)": "4 days"
  },
  {
    "COMPOUND": "C[S+](CC[C@H](N)C(=O)[O-])C[C@H]1O[C@@H](n2cnc3c(N)ncnc32)[C@H](O)[C@@H]1O (some centres undefined)",
    "Hepatotoxicity (time to onset)": "3 days"
  },
  {
    "COMPOUND": "Cc1cccc(Nc2ccccc2C(=O)O)c1C",
    "Hepatotoxicity (time to onset)": "2 weeks"
  },
  {
    "COMPOUND": "CN(C)[C@@H]1C(O)=C(C(=O)NCNCCCC[C@H](N)C(=O)O)C(=O)[C@@]2(O)C(O)=C3C(=O)c4c(O)cccc4[C@@](C)(O)[C@H]3C[C@@H]12",
    "Hepatotoxicity (time to onset)": "2.4 years"
  },
  {
    "COMPOUND": "CC(C(=O)O)c1ccc(C(=O)c2ccccc2)s1 (centres undefined)",
    "Hepatotoxicity (time to onset)": "3 weeks - 2 months"
  },
  {
    "COMPOUND": "CC(C)NCC(O)COc1ccc(CC(N)=O)cc1 (centres undefined)",
    "Hepatotoxicity (time to onset)": "2 days - 9 months"
  },
  {
    "COMPOUND": "CCn1cc(C(=O)O)c(=O)c2cc(F)c(N3CCNCC3)cc21",
    "Hepatotoxicity (time to onset)": "1 day - 10 days"
  },
  {
    "COMPOUND": "CN1C(=O)CC(=O)N(c2ccccc2)c2cc(Cl)ccc21",
    "Hepatotoxicity (time to onset)": "1 week"
  },
  {
    "COMPOUND": "FCOC(C(F)(F)F)C(F)(F)F",
    "Hepatotoxicity (time to onset)": "1 day - 11 days"
  },
  {
    "COMPOUND": "Nc1nc(N)c2nc(-c3ccccc3)c(N)nc2n1",
    "Hepatotoxicity (time to onset)": "2 days - 3 weeks"
  },
  {
    "COMPOUND": "CC(C)[C@H](N)C(=O)OCCOCn1cnc2c(=O)[nH]c(N)nc21",
    "Hepatotoxicity (time to onset)": "10 days"
  },
  {
    "COMPOUND": "O=C(CCCN1CCC(O)(c2ccc(Cl)cc2)CC1)c1ccc(F)cc1",
    "Hepatotoxicity (time to onset)": "2 weeks - 5 months"
  },
  {
    "COMPOUND": "CCC[C@H](N[C@@H](C)C(=O)N1[C@H](C(=O)O)C[C@@H]2CCCC[C@@H]21)C(=O)OCC",
    "Hepatotoxicity (time to onset)": "3 weeks"
  },
  {
    "COMPOUND": "CC(S)C(=O)NCC(=O)O (centres undefined)",
    "Hepatotoxicity (time to onset)": "19 days - 2 years"
  },
  {
    "COMPOUND": "CO[C@H]1/C=C/O[C@@]2(C)Oc3c(C)c(O)c4c(O)c(c(/C=N/N5CCN(C)CC5)c(O)c4c3C2=O)NC(=O)/C(C)=C\\C=C\\[C@H](C)[C@H](O)[C@@H](C)[C@@H](O)[C@@H](C)[C@H](OC(C)=O)[C@@H]1C",
    "Hepatotoxicity (time to onset)": "2 days - 14 months"
  },
  {
    "COMPOUND": "OCCN1CCN(CCCN2c3ccccc3Sc3ccc(C(F)(F)F)cc32)CC1",
    "Hepatotoxicity (time to onset)": "2 weeks"
  }
]
